Tested on: L1210 leukemia ip in BDF1 mice, survival T/C
Assay: NCI In Vivo Anticancer Drug Screen. Data for tumor model L1210 Leukemia (intraperitoneal) in B6D2F1 (BDF1) mice
Conditions: endpoint: mean survival time; dose: 25.0 mg/kg/injection; schedule: Q01DX001 (ip); vehicle: saline with Tween-80; higher = longer survival
Inconclusive results and toxic doses are left out.
Recorded T/C for the following compounds

Nc1nc2c(ncn2-c2cccc3ccccc23)c(=O)[nH]1 : 93 % of control

[in] Entry O=S(NOCCCCONS(=O)c1ccccc1)c1ccccc1 (centres undefined) , system L1210 leukemia ip in BDF1 mice, survival T/C: what T/C was measured?
[out] 100 % of control

[in] Entry CCN(CC)Cc1cc(O)c(CN(CC)CC)cc1O , system L1210 leukemia ip in BDF1 mice, survival T/C: what T/C was measured?
[out] 93 % of control

[in] Entry O=C(O)c1cnc(Cl)nc1Nc1ccccc1I , system L1210 leukemia ip in BDF1 mice, survival T/C: what T/C was measured?
[out] 90 % of control
